system: Algae C; experiment: Test tube algicidal test on algae C sampled from cooling tower C; assay type: cell-based, blue-green algae, containing green algae and diatoms; parameters: key to the marks not given beside the values; conditions: visual inspection after 3 days at north-side window; CSA and algicidal agent amounts per example as in Table 1
reported-endpoint: Evaluation Results Algae C

The examples below pair each entry with its known result.
# compound, assay-system, Evaluation Results Algae C
records = [
    ("O=S(=O)(O)NCl [compound 5, chlorosulfamic acid]", "Algae C", "++"),
    ("N#CC(Br)(Br)C(N)=O [Comparative Example 7, 2,2-dibromo-3-nitrilopropion amide]", "Algae C", "+++"),
    ("O=S(=O)(O)NCl [compound 4, chlorosulfamic acid]", "Algae C", "++"),
    ("O=S(=O)(O)NCl [compound 2, chlorosulfamic acid]", "Algae C", "+++"),
    ("O=[N+]([O-])C(Br)(CO)CO", "Algae C", "+++"),
    ("O=S(=O)(O)NCl [Comparative Example 1, chlorosulfamic acid]", "Algae C", "+++"),
]

Record Evaluation Results Algae C per entry; entries follow.
1. O=S(=O)(O)NCl [compound 3, chlorosulfamic acid]
2. Cn1sc(Cl)cc1=O

1: +++; 2: +++

---

tested on: Algae A; assay: Test tube algicidal test on algae A sampled from cooling tower A; assay type: cell-based, diatoms, containing green algae; design: key to the marks not given beside the values; conditions: visual inspection after 3 days at north-side window; CSA and algicidal agent amounts per example as in Table 1
reported-endpoint: Evaluation Results Algae A

# compound, Evaluation Results Algae A
rows = [
    ("O=S(=O)(O)NCl [compound 5, chlorosulfamic acid]", "+++"),
    ("O=S(=O)(O)NCl [Comparative Example 1, chlorosulfamic acid]", "+++"),
    ("O=S(=O)(O)NCl [compound 2, chlorosulfamic acid]", "+++"),
    ("N#CC(Br)(Br)C(N)=O [Comparative Example 7, 2,2-dibromo-3-nitrilopropion amide]", "++"),
    ("O=[N+]([O-])C(Br)(CO)CO", "++"),
    ("O=S(=O)(O)NCl [compound 3, chlorosulfamic acid]", "+++"),
    ("Cn1sc(Cl)cc1=O", "++"),
]

Now consider a different compound.
Evaluation Results Algae A lookup needed for O=S(=O)(O)NCl [compound 4, chlorosulfamic acid] , thanks. +++

These measurements were taken from patent US10647598B2.
